Where do the numbers come from? From ChEMBL document CHEMBL1149808.

biological target: cGMP-dependent 3',5'-cyclic phosphodiesterase (Bos taurus) (UniProt P14099); assay: Inhibition of bovine aorta PDE2 at 10 uM in presence of cGMP
inhibition by entry:
Unit % implied. Number only.

CNc1nc(C)nc2c(C(=O)c3ccccc3)cnn12 : 17
CCCc1nc(NC)n2ncc(Cc3ccccc3)c2n1 : 20

Form field inhibition, entry CCCc1nc(NC)n2ncc(Cc3ccccc3OC)c2n1 : 31

Form field inhibition, entry CNc1nc(C)nc2c(-c3ccccc3)cnn12 : 11

---

experiment: Inhibition of PDE1 in presence of calmodulin
READOUT_TYPE: pIC50
pIC50 is defined as minus the log10 of a concentration measured in mol/L.

Form field pIC50, entry CNc1nc(C)nc2c(Cc3ccccc3)cnn12 : 4.85

---

inhibition by entry:
experiment: Inhibition of PDE1 at 10 uM in presence of calmodulin

Field: example entries. Status: answers known.
CCCc1nc(NC)n2ncc(Cc3ccccc3OC)c2n1 : 35%
CCCc1nc(NC)n2ncc(Cc3ccccc3)c2n1 : 25%
CNc1nc(C)nc2c(C(=O)c3ccccc3)cnn12 : 29%

Continue with the next compound.
Form field inhibition, entry CNc1nc(C)nc2c(-c3ccccc3)cnn12 : 20%

---

Target: cGMP-dependent 3',5'-cyclic phosphodiesterase (Bos taurus, UniProt P14099)
Sequence (P14099 whole entry): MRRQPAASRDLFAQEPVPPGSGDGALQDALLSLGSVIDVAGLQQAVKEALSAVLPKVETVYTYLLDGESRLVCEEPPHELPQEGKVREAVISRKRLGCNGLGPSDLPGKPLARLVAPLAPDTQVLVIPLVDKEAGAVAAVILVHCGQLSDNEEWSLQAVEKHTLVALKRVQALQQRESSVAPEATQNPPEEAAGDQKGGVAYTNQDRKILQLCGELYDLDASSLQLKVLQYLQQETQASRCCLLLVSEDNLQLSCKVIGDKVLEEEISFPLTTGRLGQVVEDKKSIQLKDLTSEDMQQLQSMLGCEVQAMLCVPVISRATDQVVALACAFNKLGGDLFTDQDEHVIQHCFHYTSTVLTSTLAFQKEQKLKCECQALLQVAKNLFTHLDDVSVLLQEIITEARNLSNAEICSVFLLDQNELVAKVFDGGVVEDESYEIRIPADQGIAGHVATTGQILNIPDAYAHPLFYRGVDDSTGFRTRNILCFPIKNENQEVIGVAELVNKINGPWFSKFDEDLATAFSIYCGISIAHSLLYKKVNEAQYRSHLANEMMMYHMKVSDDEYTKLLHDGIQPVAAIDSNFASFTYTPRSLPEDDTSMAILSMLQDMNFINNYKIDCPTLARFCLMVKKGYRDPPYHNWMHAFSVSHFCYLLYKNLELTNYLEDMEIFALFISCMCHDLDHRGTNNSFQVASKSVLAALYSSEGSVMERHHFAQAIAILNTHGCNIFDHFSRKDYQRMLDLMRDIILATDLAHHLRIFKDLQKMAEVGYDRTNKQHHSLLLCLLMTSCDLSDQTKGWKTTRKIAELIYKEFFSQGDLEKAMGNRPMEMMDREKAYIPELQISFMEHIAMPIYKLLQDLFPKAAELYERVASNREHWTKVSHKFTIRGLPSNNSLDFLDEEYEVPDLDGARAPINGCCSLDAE
Experiment: Inhibition of bovine aorta PDE2 in presence of cGMP
READOUT_TYPE: pIC50
pIC50 is defined as minus the log10 of a concentration measured in mol/L.

Form field pIC50, entry CNc1nc(C)nc2c(Cc3ccccc3)cnn12 : 4.25
